Attribution: PubChem BioAssay (Tox21)

assay explanation: qHTS assay to identify small molecule HDAC inhibitors (AID 1259364);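 also: wild-type HCT-116 cells with endogenous class I/II HDAC activity; nearly all actives have a fitted effect of over 45% in size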
details: HCT-116 HDAC-Glo I/II luminescence, 2 h; series mostly up to 92.4 µM
From the text: U.S. Tox21 Program National Center for Advancing Translational Sciences [NCATS] NIH Chemical Genomics Center [NCGC] U.S. Environmental Protection Agency [EPA] National Institutes of Environmental Health Sciences [NIEHS] National Toxicology Program [NTP] U.S. Food and Drug Administration [FDA] Tox21 Assay Overview: Histone deacetylases (HDACs) are a group of epigenetic enzymes that regulate gene expression by histone deacetylation. […]
Inconclusive results are not listed. Calls of active or inactive are those of the source. Calls follow the shape of the dose curve; as a rule, active = well fitted inhibition curve with a large enough effect in the repeat runs; inconclusive = weak or mixed curves; inactive = flat fitted curve, though single readings scatter.
Answer with one of the outcomes given here: active, inactive

Please review the entries below; each comes with its answer.
>  <compound>
O=c1c2ccccc2oc2ccccc12

>  <class label>
active

$$$$
>  <compound>
CC(Cc1ccccc1)(NC(=O)CN)c1ccccc1 (stereo not drawn)

>  <class label>
inactive

$$$$
>  <compound>
Clc1cccc(C(c2ccc3nc[nH]c3c2)n2ccnc2)c1 (stereo not drawn)

>  <class label>
inactive

$$$$
>  <compound>
CC(=O)c1cccnc1

>  <class label>
inactive

$$$$
>  <compound>
Sc1nc(S)nc(S)n1

>  <class label>
inactive

$$$$
>  <compound>
CNc1ccccc1

>  <class label>
inactive

$$$$

query: How did this test come out for `C[Si](C)(C)O[Si](C)(C)O[Si](C)(C)C` ?
result: inactive

query: Outcome? CCc1c(C)[nH]c2c1C(=O)C(CN1CCOCC1)CC2 (stereo not drawn)
result: inactive

query: Returns: the outcome recorded for `C/C(=C(\CCO)SS/C(CCO)=C(\C)N(C=O)Cc1cnc(C)nc1N)N(C=O)Cc1cnc(C)nc1N` in this assay.
result: inactive

query: // param item: `OCCOc1cccc(OCCO)c1` ; yields the recorded call
result: active

query: What was the test verdict on `Cc1ccc(S(=O)(=O)NC(=O)NC2CCCC2)cc1` ?
result: inactive

query: Call for entry `O=C(O)c1ccccc1[N+](=O)[O-]` :
result: inactive

query: Write down the call the test reported for this compound. Item: `CC1(C)[C@@H]2CC[C@]3(C2)[C@@H]1C(=O)CCC3(C)C`
result: inactive

====

assay explanation: qHTS assay to identify small molecule antagonists of the thyroid receptor (TR) signaling pathway (AID 743065); also: % is scaled to controls: 0 for no effect and ±100 for the full control effect; nearly all actives have a fitted effect of over 55% in size
details: GH3.TRE-Luc, T3-stimulated luciferase inhibition, 23.5 h; series mostly up to 70.3 µM
Inconclusive results are not listed. Active and inactive are the calls of the source. Calls come from the whole dose curve; as a rule, active = well fitted inhibition curve with a large enough effect in the repeat runs; inconclusive = weak or mixed curves; inactive = no such curve, though single readings can be large or run the other way.
Your reply should match one of these outcome classes. class 1 (active), class 0 (inactive)

>  <compound>
Clc1ccccc1-c1nc(-c2ccncc2)no1

>  <class label>
class 0

$$$$
>  <compound>
O=C(O)c1ccc(O)c(O)c1

>  <class label>
class 0

$$$$
>  <compound>
O=[N+]([O-])c1ccccc1CCO

>  <class label>
class 0

$$$$
>  <compound>
O=C(O)c1cccc(C(=O)O)c1C(=O)O

>  <class label>
class 0

$$$$

Kindly review the next compound as well.
query: Tell me the assay call for `O=C(OCCCCCOC(=O)c1ccccc1)c1ccccc1` please.
result: class 0

====

assay explanation: qHTS assay to test for compound auto fluorescence at 460 nm (blue) in HepG2 cells (AID 720687); also: % is scaled to controls: 0 for no effect and ±100 for the full control effect
details: autofluorescence 405/460 nm, 1 h; series mostly up to 91.3 µM
Active and inactive are the calls of the source. Calls follow the shape of the dose curve; as a rule, active = well fitted curve in the direction sought with a large enough effect in the repeat runs; inconclusive = weak or mixed curves; inactive = flat fitted curve, though single readings scatter.
property label: fluorescence, % of fluorescent control

Example molecules with recorded fluorescence, % of fluorescent control:
>  <molecule>
CCCN(C1CCN(C(=O)C2CCNCC2)CC1)[C@@H]1CCc2ccc(OC)cc2C1

>  <observed result>
inactive

$$$$
>  <molecule>
CCOc1ccc2c(c1)C(C)CC(C)(C)N2 (centres undefined)

>  <observed result>
inactive

$$$$
>  <molecule>
O=C(O)c1ccccc1[N+](=O)[O-]

>  <observed result>
inactive

$$$$
>  <molecule>
CC(CCl)OC(C)CCl (centres undefined)

>  <observed result>
inactive

$$$$
>  <molecule>
CCCCCCCCC(=O)OCC(C)OC(=O)CCCCCCCC (centres undefined)

>  <observed result>
inactive

$$$$

molecule `O=C(O)c1cc(C(=O)O)c(C(=O)O)cc1C(=O)O` , fluorescence, % of fluorescent control observed: inactive

Memo: CCc1ccc(C(=O)C(C)CN2CCCCC2)cc1 (centres undefined) , reported fluorescence, % of fluorescent control: inactive

The measured fluorescence, % of fluorescent control associated with `COc1ccc(CN(CCN(C)C)c2ncccn2)cc1` reads inactive

Reported fluorescence, % of fluorescent control of `CC(C)C[C@H](NC(=O)[C@H](Cc1ccccc1)NC(=O)c1cnccn1)B(O)O` : inactive

fluorescence, % of fluorescent control reported for this molecule `COC(=O)c1cc(Cl)ccc1[N+](=O)[O-]` : inactive

The reported value for `O=C(OCCCCCOC(=O)c1ccccc1)c1ccccc1` in terms of fluorescence, % of fluorescent control is inactive

Reported fluorescence, % of fluorescent control ( `O=C1C=CCCC1` ) = inactive

====

assay explanation: Caspase-3/7 induction in CHO-K1 cells by small molecules, qHTS assay (AID 1346980); also: % is scaled to controls: 0 for no effect and ±100 for the full control effect; nearly all actives have a fitted effect of over 15% in size
details: CHO-K1 caspase-3/7 induction, Caspase-Glo luminescence, 17 h; series mostly up to 92.4 µM
Active and inactive are the calls of the source. Calls follow the shape of the dose curve; as a rule, active = well fitted activation curve with a large enough effect in the repeat runs; inconclusive = weak or mixed curves; inactive = flat fitted curve, though single readings scatter.
property label: caspase-3/7 activation

// worked examples, caspase-3/7 activation included
>  <molecule>
C[C@H]1C[C@H]2[C@@H]3CCC4=CC(=O)C=C[C@]4(C)[C@@]3(F)[C@@H](O)C[C@]2(C)[C@@]1(O)C(=O)COP(=O)(O)O

>  <caspase-3/7 activation>
inactive

$$$$
>  <molecule>
Nc1nc(Cl)nc2c1ncn2[C@H]1C[C@H](O)[C@@H](CO)O1

>  <caspase-3/7 activation>
inactive

$$$$
>  <molecule>
CC1=C(C)C(=O)C(C(CCCCCC(=O)O)c2ccccc2)=C(C)C1=O (stereo unspecified)

>  <caspase-3/7 activation>
inactive

$$$$
>  <molecule>
COc1ccc(/C=C/S(=O)(=O)NC(=O)c2ccc(C)cc2Cl)cc1

>  <caspase-3/7 activation>
inactive

$$$$

response.value for CCC1=C(C)CN(C(=O)NCCc2ccc(S(=O)(=O)NC(=O)NC3CCC(C)CC3)cc2)C1=O (stereo unspecified) (field: caspase-3/7 activation) = inactive

caspase-3/7 activation reported for this molecule `Cc1cccc(C)c1NC(=O)CN1CCCC1` : inactive

Form field caspase-3/7 activation, entry CC(=O)Nc1ccn(C2COC(COC(=O)c3ccccc3)O2)c(=O)n1 (stereo unspecified) : inactive

caspase-3/7 activation reading for Cc1ccc(Cl)c(OCC(O)CNC(C)(C)C)c1 (stereo unspecified) : inactive

====

tested system: Cytochrome P450 1A2 (Homo sapiens)
assay explanation: Cytochrome P450 Family 1 Subfamily A Member 2 (CYP1A2) small molecule antagonists: luciferase reporter qHTS assay (AID 1671199); also: nearly all actives have a fitted effect of over 50% in size
details: P450-Glo CYP1A2 enzyme, luciferin luminescence, 1 h; series mostly up to 115 µM
Records with an inconclusive call do not appear. Activity calls are given as the source filed them. The call rests on the fitted dose curve; in most records, active means well fitted inhibition curve with a large enough effect in the repeat runs; inconclusive means weak or mixed curves; inactive means no such curve, though single readings can be large or run the other way.
Your reply should match one of these outcome classes. true = active, false = inactive

Example entries begin here.
>  <compound>
CC(C)(C)NCC(O)COc1ccc(NC(=O)NC2CCCCC2)cc1 (stereo not given)

>  <class label>
false

$$$$
>  <compound>
C=C(C)C(=O)OCCCCCCCCCCOC(=O)C(=C)C

>  <class label>
true

$$$$
>  <compound>
COc1ccc(/C=C/S(=O)(=O)NC(=O)c2ccc(C)cc2Cl)cc1

>  <class label>
false

$$$$
>  <compound>
O=C(Nc1ccc2c(c1)Cc1ccccc1-2)C(F)(F)F

>  <class label>
true

$$$$
>  <compound>
CCCC1CCCC(=O)O1 (stereo not given)

>  <class label>
false

$$$$
>  <compound>
COc1ccc(C(=O)c2ccc(C)cc2)c(O)c1

>  <class label>
true

$$$$

query: What is the recorded call for this compound in the test? `CCCCCCCCNC`
result: false

query: Entry `CO[C@@H]1[C@@H](O[C@@H]2O[C@H](C)[C@@H](O[C@H]3C[C@@](C)(O)[C@@H](O)[C@H](C)O3)[C@H](N(C)C)[C@H]2O)[C@@H](CC=O)C[C@@H](C)[C@@H](O[C@@H]2CC[C@H](N(C)C)[C@@H](C)O2)/C=C/C=C/C[C@@H](C)OC(=O)C[C@H]1OC(C)=O` : call = ?
result: false

query: # lookup: test call for `O=C(c1ccc(Cl)cc1)c1ccc(Cl)cc1`
result: true

query: How did this test come out for `Cc1ccc(NC(=O)c2ccc(CN3CCN(C)CC3)cc2)cc1Nc1nccc(-c2cccnc2)n1` ?
result: false

query: Entry CCCCC(CC)COCCC#N (stereo not given) : call = ?
result: false

====

assay explanation: qHTS assay to identify small molecule antagonists of the progesterone receptor (PR) signaling pathway - cell viability counter screen (AID 1346798); also: nearly all actives have a fitted effect of over 50% in size; also: potency is read from the fitted curve at half-maximal effect
details: PR-UAS-bla HEK293T viability, CellTiter-Glo luminescence, 16 h; series mostly up to 92.4 µM
Results filed as inconclusive are left out. Calls of active or inactive are those of the source. Calls come from the whole dose curve; as a rule, active = well fitted cell-killing curve with a large enough effect in the repeat runs; inconclusive = weak or mixed curves, or effect the other way; inactive = no such curve, though single readings can be large or run the other way.
property label: Potency

Consider the worked cases shown below.
>  <compound>
Cc1cc(N)n(-c2ccccc2)n1

>  <Potency>
inactive

$$$$
>  <compound>
O=[N+]([O-])c1cccc(I)c1

>  <Potency>
inactive

$$$$
>  <compound>
CCn1nc(Cc2ccccc2)cc1C1CCN(C[C@H]2C[C@H](N(C)[C@@H](C(=O)O)C(C)C)C[C@@H]2c2cccc(F)c2)CC1

>  <Potency>
inactive

$$$$
>  <compound>
CC(=O)c1ccc(Cl)c(Cl)c1Cl

>  <Potency>
inactive

$$$$
>  <compound>
OCCOc1cccc(OCCO)c1

>  <Potency>
inactive

$$$$

Please fill in: Potency reported for O=C1OC(=O)C2CC=CCC12 (stereo not drawn) = inactive

get_value(item= OCC(O)c1ccccc1 (stereo not drawn) , readout=Potency) returns 19.3 µM (active)

Documented Potency of `CCCCCCCCCCCCCCCCN` : inactive

Sure, the documented Potency for `CC(C)(C)N` is inactive
